Each entry below carries its reported PBM binding z-score.
Test system: VDR homodimer (NR concentration 270 nM)
Assay: PBM binding z-score (relative to random genomic background probes); higher = stronger binding; sequences stand for … in GC…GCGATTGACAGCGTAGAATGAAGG
No unit in the answer, only the number.

// below: answered sequences
TCTTGTAGATCAGCAGGTGAAGAAAGCTGGCCAA ... -0.766
GCATACAGGTAATACAAGGTGAAAGTCCGATTGT ... 0.161
TAGCCTAGGTCATGGGCTAGTATACCACGCGAAC ... 0.156

Tell me measured PBM binding z-score for `CCAGACAGGTGAGAAAGTAACTCAGCCTCGATTA` please.
-0.255

Tell me measured PBM binding z-score for `CGTCCAGGGTCAAGGTCAGTGAAAGAGACTCGAA` please.
2.98

Tell me measured PBM binding z-score for `ACATACAGGTGAGTGAAGGTAACTCAGCTGGACG` please.
0.00472

Tell me measured PBM binding z-score for `ATCTCTAGGTAAAGTTTAGTGAAAGATCGATAGA` please.
0.236

Tell me measured PBM binding z-score for `CCGAGTAGGTAATGGGGCATTCAGGCAACGGTGA` please.
-0.22
